Reference source: ChEMBL document CHEMBL1128719

Tested on: Enterobacter cloacae
Assay: In vitro antibacterial activity was tested for Enterobacter cloacae HA2646
Assay type: functional
measurement.label: log10 of MIC (log10 of the value in µg/mL)
// units: µg/mL (pre-log); metric: MIC; scale: log10

[
  {
    "compound": "COc1c(N2CCNC(C)C2)c(F)cc2c(=O)c(C(=O)O)cn(C3CC3)c12 (stereo not drawn) [GATIFLOXACIN]",
    "log10 of MIC": -1.30
  },
  {
    "compound": "COc1c(N2CCC(CN)CC2)c(F)cc2c(=O)c(C(=O)O)cn(C3CC3)c12",
    "log10 of MIC": -1.00
  },
  {
    "compound": "NCC1CCCN(c2c(F)c(N)c3c(=O)c(C(=O)O)cn(C4CC4)c3c2F)C1 (stereo not drawn)",
    "log10 of MIC": -1.30
  },
  {
    "compound": "NCC1CCCN(c2c(F)cc3c(=O)c(C(=O)O)cn(C4CC4)c3c2F)C1 (stereo not drawn)",
    "log10 of MIC": -1.30
  },
  {
    "compound": "CCOc1c(N2CCC(N)C2)c(F)c(N)c2c(=O)c(C(=O)O)cn(C3CC3)c12 (stereo not drawn)",
    "log10 of MIC": -1.00
  },
  {
    "compound": "COc1c(N2CCC(N)C2)c(F)cc2c(=O)c(C(=O)O)cn(C3CC3)c12 (stereo not drawn)",
    "log10 of MIC": -1.60
  },
  {
    "compound": "COc1c(N2CCN(C)CC2)c(F)cc2c(=O)c(C(=O)O)cn(C3CC3)c12",
    "log10 of MIC": -1.00
  },
  {
    "compound": "NC1CCN(c2cc3c(cc2F)c(=O)c(C(=O)O)cn3C2CC2)C1 (stereo not drawn)",
    "log10 of MIC": -1.60
  },
  {
    "compound": "COc1c(N2CCCC(N)C2)c(F)c(N)c2c(=O)c(C(=O)O)cn(C3CC3)c12 (stereo not drawn)",
    "log10 of MIC": -1.00
  },
  {
    "compound": "COc1c(N2CCNCC2)c(F)cc2c(=O)c(C(=O)O)cn(C3CC3)c12",
    "log10 of MIC": -1.60
  }
]

Working through the 8 compounds below one at a time, give log10 of MIC for each.
1. COc1c(N2CCC(C)(CN)C2)c(F)c(N)c2c(=O)c(C(=O)O)cn(C3CC3)c12 (stereo not drawn)
2. COc1c(N2CCC(CN)C2)c(F)cc2c(=O)c(C(=O)O)cn(C3CC3)c12 (stereo not drawn)
3. NCC1CCCN(c2nc3c(cc2F)c(=O)c(C(=O)O)cn3C2CC2)C1 (stereo not drawn)
4. CCOc1c(N2CCNC(C)C2)c(F)cc2c(=O)c(C(=O)O)cn(C3CC3)c12 (stereo not drawn)
5. CCNCC1CCCN(c2c(F)cc3c(=O)c(C(=O)O)cn(C4CC4)c3c2OCC)C1 (stereo not drawn)
6. NCC1CCCN(c2cc3c(cc2F)c(=O)c(C(=O)O)cn3C2CC2)C1 (stereo not drawn)
7. CCOc1c(N2CCC(C)(CN)C2)c(F)c(N)c2c(=O)c(C(=O)O)cn(C3CC3)c12 (stereo not drawn)
8. CCOc1c(N2CCCC(N)C2)c(F)c(N)c2c(=O)c(C(=O)O)cn(C3CC3)c12 (stereo not drawn)

1: -1.00; 2: -1.30; 3: -0.40; 4: -1.00; 5: 0.20; 6: -0.40; 7: -0.40; 8: -0.70
